test: AUC of compound for a 2 mpk po dose of the sodium salt in rats.; type: ADME, organism-based; details: rat, plasma, 2 mg/kg
metricName: AUC (µM·h)
Give the value, in units of µM·h, as a plain number.

Ask: Please report the measured AUC for "CCCc1c(OCCCCOc2cccc(CC(=O)O)c2)ccc2c(-c3ccccc3)noc12"
Reply: 4.2

----------
pEC50 reference
molecular target: Peroxisome proliferator-activated receptor gamma (Homo sapiens); experiment: Agonistic activity was determined in COS1 cells transfected with GAL 4-PPAR gamma receptor; assay type: functional, cell-based, COS-1
Sequence (P37231 whole entry): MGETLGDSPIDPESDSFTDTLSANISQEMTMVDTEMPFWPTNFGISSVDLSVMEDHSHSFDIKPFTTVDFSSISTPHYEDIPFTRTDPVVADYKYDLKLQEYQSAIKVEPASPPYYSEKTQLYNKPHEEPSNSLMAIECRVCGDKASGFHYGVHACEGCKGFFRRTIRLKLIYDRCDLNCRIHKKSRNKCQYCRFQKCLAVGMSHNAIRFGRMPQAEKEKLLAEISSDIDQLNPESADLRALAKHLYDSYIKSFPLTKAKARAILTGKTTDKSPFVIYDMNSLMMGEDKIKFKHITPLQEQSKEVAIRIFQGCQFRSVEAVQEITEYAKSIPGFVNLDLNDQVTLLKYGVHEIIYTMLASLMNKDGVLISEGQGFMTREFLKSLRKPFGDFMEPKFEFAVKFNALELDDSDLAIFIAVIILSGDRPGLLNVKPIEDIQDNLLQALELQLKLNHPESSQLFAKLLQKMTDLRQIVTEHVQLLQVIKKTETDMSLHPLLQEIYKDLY
As a rule, pEC50 stands for the negative log10 of the concentration, concentration in M.

CCCc1c(OCCCCOc2cccc(OCC(=O)O)c2)ccc2c(-c3ccccc3)noc12	7.06
CCCc1c(OCCCCOc2cccc(C(C)(C)C(=O)O)c2)ccc2c(-c3ccccc3)noc12	7.28
CCCc1c(OCCCOc2ccc(OC(C)C(=O)O)cc2)ccc2c(-c3ccccc3)noc12 (centres undefined)	7.57

Ask: Please report the measured pEC50 for "CCCc1c(OCCCCOc2cccc(CC(=O)O)c2)ccc2c(-c3ccccc3)noc12"
Reply: 8.22

Ask: Please report the measured pEC50 for "CCCc1c(OCCCCOc2cccc(OC(C)(C)C(=O)O)c2)ccc2c(-c3ccccc3)noc12"
Reply: 7.00

Ask: Please report the measured pEC50 for "CCCc1c(OCCCOc2ccc(CCCC(=O)O)cc2)ccc2c(-c3ccccc3)noc12"
Reply: 6.81

Ask: Please report the measured pEC50 for "CCCc1c(OCCCSc2ccc(CC(=O)O)cc2Cl)ccc2c(-c3ccccc3)noc12"
Reply: 8.40

Ask: Please report the measured pEC50 for CCCc1c(OCCCCOc2ccc(OC(C)C(=O)O)cc2)ccc2c(-c3ccccc3)noc12 (centres undefined)
Reply: 7.80

Ask: Please report the measured pEC50 for "CCCc1c(OCCCCOc2ccc(OC(C)(C)C(=O)O)cc2)ccc2c(-c3ccccc3)noc12"
Reply: 8.70

----------
target: Peroxisome proliferator-activated receptor alpha (Homo sapiens, UniProt Q07869); assay: Agonistic activity was determined in COS1 cells transfected with GAL 4-PPAR alpha receptor
Sequence (Q07869 whole entry): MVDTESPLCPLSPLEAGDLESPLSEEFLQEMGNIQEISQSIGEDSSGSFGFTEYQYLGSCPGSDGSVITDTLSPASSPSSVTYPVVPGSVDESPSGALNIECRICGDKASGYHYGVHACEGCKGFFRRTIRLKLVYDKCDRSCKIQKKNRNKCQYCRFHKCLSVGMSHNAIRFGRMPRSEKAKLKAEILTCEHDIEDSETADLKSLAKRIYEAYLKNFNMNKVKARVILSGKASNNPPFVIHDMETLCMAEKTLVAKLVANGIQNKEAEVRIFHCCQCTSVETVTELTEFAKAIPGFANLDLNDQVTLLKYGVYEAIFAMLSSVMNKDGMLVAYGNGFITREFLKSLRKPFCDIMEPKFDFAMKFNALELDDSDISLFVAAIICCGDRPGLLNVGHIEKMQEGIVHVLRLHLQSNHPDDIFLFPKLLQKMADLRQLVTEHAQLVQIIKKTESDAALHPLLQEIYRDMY
// map EC50 onto a label; ranges low: < 3 nM; mid: ≥ 3 nM and < 30 nM; high: ≥ 30 nM

CCCc1c(OCCCCOc2cccc(C(C)(C)C(=O)O)c2)ccc2c(-c3ccccc3)noc12	high
CCCc1c(OCCCCOc2ccc(OC(C)C(=O)O)cc2)ccc2c(-c3ccccc3)noc12 (stereo not drawn)	low
CCCc1c(OCCCCOc2cccc(OCC(=O)O)c2)ccc2c(-c3ccccc3)noc12	high

Ask: Lab log: "CCCc1c(OCCCCOc2ccc(CC(C)(C)C(=O)O)cc2)ccc2c(-c3ccccc3)noc12" — assign EC50 category
Reply: mid

Ask: Lab log: "CCCc1c(OCCCCOc2ccc(CC(=O)O)cc2)ccc2c(-c3ccccc3)noc12" — assign EC50 category
Reply: mid

Ask: Lab log: "CCCc1c(OCCCCOc2cccc(C(=O)O)c2)ccc2c(-c3ccccc3)noc12" — assign EC50 category
Reply: mid

Ask: Lab log: "CCCc1c(OCCCCOc2cccc(CC(=O)O)c2)ccc2c(-c3ccccc3)noc12" — assign EC50 category
Reply: mid

Ask: Lab log: CCCc1c(OCCCOc2ccc(OC(C)C(=O)O)cc2)ccc2c(-c3ccccc3)noc12 (stereo not drawn) — assign EC50 category
Reply: low

Ask: Lab log: "CCCc1c(OCCCCOc2ccc(C(C)(C)CC(=O)O)cc2)ccc2c(-c3ccccc3)noc12" — assign EC50 category
Reply: high

// data source = ChEMBL document CHEMBL1136629
